Source of measurements: PubChem BioAssay (EPA / NIEHS)

- ASSAY DETAILS: ACEA_AR_agonist_AUC_viability: ACEA Biosciences xCELLigence Real-Time Cell Analysis on Androgen Receptor Agonism for Viability (AID 2283775)
Records with an inconclusive call do not appear. Activity calls are given as the source filed them. The calls were made as follows: active = hit-call score of the fitted dose curve at least 0.9, where 1 is the maximum; inconclusive = response in the unintended direction; inactive = score below 0.9.
Field 'call' accepts 1 (yes) (active), 0 (no) (inactive)

COMPOUND	CLASS
O=[N+]([O-])c1ccc(O)c([N+](=O)[O-])c1	1 (yes)
CCOP(=S)(OCC)Oc1nc(Cl)c(Cl)cc1Cl	1 (yes)
CC(C)(c1ccc(OCC2CO2)cc1)c1ccc(OCC2CO2)cc1 (configuration not stated)	0 (no)
CC(=O)C=C(C)C	0 (no)

Qu. Name the outcome recorded for CCC(=O)C(CC(C)N(C)C)(c1ccccc1)c1ccccc1 (configuration not stated) in the assay.
Ans. 1 (yes)

Qu. Name the outcome recorded for c1cc[c]([Hg][c]2ccccc2)cc1 in the assay.
Ans. 1 (yes)

Qu. Name the outcome recorded for BrCCBr in the assay.
Ans. 0 (no)

---

- ASSAY DETAILS: ACEA_AR_agonist_AUC_viability: ACEA Biosciences xCELLigence Real-Time Cell Analysis on Androgen Receptor Agonism for Viability (AID 2283775)
Results filed as inconclusive are left out. Calls of active or inactive are those of the source. Rule for the calls: active = hit-call score of the fitted dose curve at least 0.9, where 1 is the maximum; inconclusive = response in the unintended direction; inactive = score below 0.9.
Field 'call' accepts True = active, False = inactive

Below are worked cases with known answers.
MOLECULE	CLASS
CN(C)N=O	False
C=C(C)C(=O)[O][Sn]([CH2]CCC)([CH2]CCC)[CH2]CCC	True
CCOC(=O)Nc1cccc(OC(=O)Nc2ccccc2)c1	False
O=C(O)C(F)(F)C(F)(F)C(F)(F)C(F)(F)C(F)(F)C(F)(F)F	False
Clc1ccc(C2(Cn3cncn3)CC(Br)CO2)c(Cl)c1 (stereo not given)	False

Qu. Name the outcome recorded for N#CN=C(N)N in the assay.
Ans. False

Qu. Name the outcome recorded for O=C/C=C/c1ccccc1 in the assay.
Ans. False

Qu. Name the outcome recorded for ClC1(Cl)C2(Cl)C3(Cl)C4(Cl)C(Cl)(Cl)C5(Cl)C3(Cl)C1(Cl)C5(Cl)C24Cl (stereo not given) in the assay.
Ans. False

Qu. Name the outcome recorded for COc1cc(-c2ccc(N)c(OC)c2)ccc1N in the assay.
Ans. True

Qu. Name the outcome recorded for C=CCc1ccc(OC)cc1 in the assay.
Ans. False

Qu. Name the outcome recorded for COc1cc(OC)nc(NC(=O)NS(=O)(=O)c2ncccc2C(=O)N(C)C)n1 in the assay.
Ans. True

Qu. Name the outcome recorded for Cc1ccccc1C(=O)Nc1cccc(OC(C)C)c1 in the assay.
Ans. False

Qu. Name the outcome recorded for Fc1ccc(C2(Cn3cncn3)OC2c2ccccc2Cl)cc1 (stereo not given) in the assay.
Ans. False

Qu. Name the outcome recorded for CC(C)(C)CC(C)(C)c1ccc(O)cc1 in the assay.
Ans. True

Qu. Name the outcome recorded for CCCCOCCOC(C)=O in the assay.
Ans. False

---

- ASSAY DETAILS: BSK_3C_uPAR: BioMAP Diversity Plus: 3C Assay for Urokinase-type plasminogen activator receptor (uPAR) Biomarker Activity (AID 2282998)
- ASSAY CONTEXT: BioMAP 3C HUVEC, uPAR biomarker ELISA; actives raise or lower the signal
Active and inactive are the calls of the source. Rule for the calls: active = hit-call score of the fitted dose curve at least 0.9, where 1 is the maximum; inactive = score below 0.9.
Field 'call' accepts Yes = active, No = inactive

Below are worked cases with known answers.
MOLECULE	CLASS
CCCCCCCCC(=O)NCc1ccc(O)c(OC)c1	No
CCCCC(CC)CO[N+](=O)[O-] (stereo not drawn)	No
O=S(=O)(c1ccc(Cl)cc1)c1ccc(Cl)cc1	No

Turning to the following molecule.
Qu. Name the outcome recorded for CCOC(=O)/C=C(C)/C=C/C[C@@H](C)CCCC(C)C in the assay.
Ans. Yes

---

- Read-out: Interleukin-1 alpha (IL1a), IL1A (gene 3552)
- ASSAY DETAILS: BSK_KF3CT_IL1a: BioMAP Diversity Plus: KF3CT Assay for Interleukin-1 alpha (IL1a) Biomarker Activity (AID 2283070)
- ASSAY CONTEXT: primary human keratinocytes with fibroblasts; actives raise or lower the signal
Active and inactive are the calls of the source. How the source made its calls: active means hit-call score of the fitted dose curve at least 0.9, where 1 is the maximum; inactive means score below 0.9.
ASSAY ENDPOINT: AC50

Worked examples, 6 compounds total:
COMPOUND	AC50
CC(C)(C)CC(C)(C)c1ccc(O)cc1	7.85 µM (active)
ClC(Cl)=C(Cl)C(Cl)=C(Cl)Cl	20 µM (active)
Cc1ccccc1N	inactive
CCOP(=S)(OCC)SCSP(=S)(OCC)OCC	inactive
CCN1CCC2(CC1)COc1cc3c(cc12)N(C(=O)c1ccc(-c2ccc(-c4nnc(C)o4)cc2C)cc1)CC3	31.4 µM (active)
O=Cc1cccc(Oc2ccccc2)c1	inactive

Here are 6 compounds. What values of AC50 were reported for them?
1. ClC1=C(Cl)[C@]2(Cl)[C@H]3[C@H]([C@H]4C=C[C@H]3C4)[C@@]1(Cl)C2(Cl)Cl
2. Oc1ccc(-c2ccccc2)cc1
3. Nc1ccc(-c2ccc(N)c(Cl)c2)cc1Cl
4. COP(=S)(OC)Oc1ccc(S(=O)(=O)N(C)C)cc1
5. CCCCCCCCC(=O)NCc1ccc(O)c(OC)c1
6. Nc1ncc([N+](=O)[O-])s1

Ans.
inactive
11.5 µM (active)
inactive
inactive
inactive
inactive

---

- TEST SYSTEM: human Peroxisome Proliferator-activated Receptor delta (PPARd), PPARD (gene 5467)
- ASSAY DETAILS: ATG_PPARd_TRANS: Attagene TRANS-FACTORIAL HepG2 Assay for human Peroxisome Proliferator-activated Receptor delta (PPARd) (AID 2283002)
Records with an inconclusive call do not appear. Active and inactive are the calls of the source. How the source made its calls: active means hit-call score of the fitted dose curve at least 0.9, where 1 is the maximum; inconclusive means response in the unintended direction; inactive means score below 0.9.
Field 'call' accepts active, inactive

Below are worked cases with known answers.
COMPOUND	CLASS
CC(=O)C(Cl)C(=O)N(C)C (stereo not given)	inactive
CC1(C)CCC(Cc2ccc(Cl)cc2)C1(O)Cn1cncn1 (stereo not given)	inactive

Qu. Name the outcome recorded for COC(=O)Cc1ccccc1 in the assay.
Ans. inactive

Qu. Name the outcome recorded for Clc1nc(Cl)nc(Cl)n1 in the assay.
Ans. inactive

Qu. Name the outcome recorded for CC(=O)c1cc(C(C)(C)C)cc2c1CCC2(C)C in the assay.
Ans. inactive

---

- Read-out: Transforming growth factor beta 1 (TGFb1), TGFB1 (gene 7040)
- ASSAY DETAILS: BSK_BE3C_TGFb1: BioMAP Diversity Plus: BE3C Assay for Transforming growth factor beta 1 (TGFb1) Biomarker Activity (AID 2283036)
- ASSAY CONTEXT: primary human bronchial epithelial cells; actives raise or lower the signal
Calls of active or inactive are those of the source. Rule for the calls: active = hit-call score of the fitted dose curve at least 0.9, where 1 is the maximum; inactive = score below 0.9.
ASSAY ENDPOINT: AC50

Worked examples, 5 compounds total:
CHEM SMILES	AC50
CC(C)(OO)c1ccccc1	inactive
COP(=S)(OC)Oc1ccc(Sc2ccc(OP(=S)(OC)OC)cc2)cc1	inactive
ClC(Cl)=C(Cl)C(Cl)=C(Cl)Cl	inactive
CCOP(=S)(OCC)Oc1nc(Cl)c(Cl)cc1Cl	inactive
CCOP(=S)(OCC)SCSP(=S)(OCC)OCC	inactive

Here are 5 compounds. What values of AC50 were reported for them?
1. CCN1CCC2(CC1)COc1cc3c(cc12)N(C(=O)c1ccc(-c2ccc(-c4nnc(C)o4)cc2C)cc1)CC3
2. O=S(=O)(c1ccc(Cl)cc1)c1ccc(Cl)cc1
3. O=C(O)C(Cl)(Cl)Cl
4. COP(=S)(OC)Oc1c(Cl)cc(C)cc1Cl
5. Oc1cccc2cccnc12

Ans.
1. inactive
2. inactive
3. inactive
4. inactive
5. 5.43 µM (active)

---

- TEST SYSTEM: Hypoxia-inducible factor 1-alpha (Homo sapiens) (UniProt Q16665)
- Sequence (Q16665 whole entry, looked up): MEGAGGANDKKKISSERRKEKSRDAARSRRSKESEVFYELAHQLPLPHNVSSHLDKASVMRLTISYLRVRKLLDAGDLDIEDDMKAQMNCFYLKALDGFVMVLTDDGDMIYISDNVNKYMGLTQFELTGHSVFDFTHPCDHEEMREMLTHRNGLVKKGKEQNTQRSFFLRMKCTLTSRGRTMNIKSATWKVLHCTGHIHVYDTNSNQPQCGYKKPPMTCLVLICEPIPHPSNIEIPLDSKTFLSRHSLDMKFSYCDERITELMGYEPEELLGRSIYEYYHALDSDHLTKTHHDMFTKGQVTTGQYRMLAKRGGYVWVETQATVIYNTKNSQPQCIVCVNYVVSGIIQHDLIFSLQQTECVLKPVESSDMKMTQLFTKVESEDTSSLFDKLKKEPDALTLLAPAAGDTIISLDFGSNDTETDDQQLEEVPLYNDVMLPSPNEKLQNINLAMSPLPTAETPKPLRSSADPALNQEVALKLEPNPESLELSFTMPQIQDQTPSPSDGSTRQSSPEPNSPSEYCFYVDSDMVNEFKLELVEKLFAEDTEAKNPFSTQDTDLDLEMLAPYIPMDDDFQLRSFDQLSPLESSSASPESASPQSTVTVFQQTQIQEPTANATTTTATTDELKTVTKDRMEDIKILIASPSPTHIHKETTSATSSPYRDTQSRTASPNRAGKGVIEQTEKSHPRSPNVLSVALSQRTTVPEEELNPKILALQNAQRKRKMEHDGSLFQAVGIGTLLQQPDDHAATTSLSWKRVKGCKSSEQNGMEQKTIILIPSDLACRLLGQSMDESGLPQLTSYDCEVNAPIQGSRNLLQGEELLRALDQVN
- ASSAY DETAILS: ATG_HIF1a_CIS: Attagene CIS-FACTORIAL HepG2 Assay for human Hypoxia Inducible Factor 1 (HIF1A) (AID 2282951)
- ASSAY CONTEXT: HepG2 Attagene cis-factorial HIF1a reporter transcription; actives raise or lower the signal
- Method: ATG_CIS is a cell-based, multiplexed-readout assay that uses HepG2, a human liver cell line, with measurements taken at 24 hours after chemical dosing in a 24-well plate.ATG_HIF1a_CIS is one of 52 assay component(s) measured or calculated from the ATG_CIS assay. […] This assay endpoint, ATG_HIF1a_CIS, was analyzed with bidirectional fitting relative to DMSO as the negative control and baseline of activity. […]
The source made the active and inactive calls. How the source made its calls: active means hit-call score of the fitted dose curve at least 0.9, where 1 is the maximum; inactive means score below 0.9.
Field 'call' accepts T = active, F = inactive

Below are worked cases with known answers.
COMPOUND	CLASS
C1CCC(NC2CCCCC2)CC1	F
N#CN=C(N)N	F
C[C@@H](Oc1ccc(Cl)cc1Cl)C(=O)O	F
CCOP(OCC)OCC	F
ClC1=C(Cl)[C@]2(Cl)[C@@H]3[C@@H](Cl)[C@@H](Cl)C[C@@H]3[C@@]1(Cl)C2(Cl)Cl	F

Qu. Name the outcome recorded for Nc1ccc(-c2ccc(N)c(Cl)c2)cc1Cl in the assay.
Ans. F

Qu. Name the outcome recorded for OCC(O)CCl (configuration not stated) in the assay.
Ans. F

Qu. Name the outcome recorded for Cl/C=C/Cl in the assay.
Ans. F

Qu. Name the outcome recorded for C=C(C)C#N in the assay.
Ans. F

Qu. Name the outcome recorded for ClCC(Cl)CCl in the assay.
Ans. F

Qu. Name the outcome recorded for CCC(C)(C)c1ccc(O)c(C(C)(C)CC)c1 in the assay.
Ans. F

Qu. Name the outcome recorded for O=c1[nH]c(=O)[nH]c(=O)[nH]1 in the assay.
Ans. F

Qu. Name the outcome recorded for COc1ccc(C=O)cc1 in the assay.
Ans. F

Qu. Name the outcome recorded for CCCCP(CCCC)CCCC in the assay.
Ans. F

Qu. Name the outcome recorded for CCOP(=S)(OCC)Oc1nc(Cl)c(Cl)cc1Cl in the assay.
Ans. F

Qu. Name the outcome recorded for COP(=O)(OC)OC in the assay.
Ans. F

Qu. Name the outcome recorded for COc1ccccc1OC in the assay.
Ans. F

Qu. Name the outcome recorded for Cc1ccc(N)cc1Cl in the assay.
Ans. F

Qu. Name the outcome recorded for Oc1c(I)cc(I)cc1I in the assay.
Ans. T

Qu. Name the outcome recorded for Cc1ccccc1C(=O)Nc1cccc(OC(C)C)c1 in the assay.
Ans. F

Qu. Name the outcome recorded for O=S(=O)(c1ccc(Cl)cc1)c1ccc(Cl)cc1 in the assay.
Ans. F
